Data origin, for the record: PubChem BioAssay (EPA / NIEHS)

Assay: ATG_M_61_CIS: Attagene CIS-FACTORIAL HepG2 Assay for M61 Transcription Factor (Internal Marker) (AID 2282937)
Settings: HepG2 Attagene CIS-FACTORIAL M61 internal marker reporter; actives raise or lower the signal
Calls of active or inactive are those of the source. How the source made its calls: active means hit-call score of the fitted dose curve at least 0.9, where 1 is the maximum; inactive means score below 0.9.
QUANTITY_MEASURED: outcome

> print(dat)
                                   molecule  assay.value
1  CN(C)CCOC(C)(c1ccccc1)c1ccccn1 (stereo not drawn)     inactive
2                         CCCCCCCCN1CCCC1=O     inactive
3                Cc1ccc(OC(=O)c2ccccc2O)cc1     inactive
